- measured-target: recombinant human baculovirus-expressed GST-tagged FASN (Homo sapiens, UniProt P49327)
- Construct: GST
- Sequence (P49327 whole entry): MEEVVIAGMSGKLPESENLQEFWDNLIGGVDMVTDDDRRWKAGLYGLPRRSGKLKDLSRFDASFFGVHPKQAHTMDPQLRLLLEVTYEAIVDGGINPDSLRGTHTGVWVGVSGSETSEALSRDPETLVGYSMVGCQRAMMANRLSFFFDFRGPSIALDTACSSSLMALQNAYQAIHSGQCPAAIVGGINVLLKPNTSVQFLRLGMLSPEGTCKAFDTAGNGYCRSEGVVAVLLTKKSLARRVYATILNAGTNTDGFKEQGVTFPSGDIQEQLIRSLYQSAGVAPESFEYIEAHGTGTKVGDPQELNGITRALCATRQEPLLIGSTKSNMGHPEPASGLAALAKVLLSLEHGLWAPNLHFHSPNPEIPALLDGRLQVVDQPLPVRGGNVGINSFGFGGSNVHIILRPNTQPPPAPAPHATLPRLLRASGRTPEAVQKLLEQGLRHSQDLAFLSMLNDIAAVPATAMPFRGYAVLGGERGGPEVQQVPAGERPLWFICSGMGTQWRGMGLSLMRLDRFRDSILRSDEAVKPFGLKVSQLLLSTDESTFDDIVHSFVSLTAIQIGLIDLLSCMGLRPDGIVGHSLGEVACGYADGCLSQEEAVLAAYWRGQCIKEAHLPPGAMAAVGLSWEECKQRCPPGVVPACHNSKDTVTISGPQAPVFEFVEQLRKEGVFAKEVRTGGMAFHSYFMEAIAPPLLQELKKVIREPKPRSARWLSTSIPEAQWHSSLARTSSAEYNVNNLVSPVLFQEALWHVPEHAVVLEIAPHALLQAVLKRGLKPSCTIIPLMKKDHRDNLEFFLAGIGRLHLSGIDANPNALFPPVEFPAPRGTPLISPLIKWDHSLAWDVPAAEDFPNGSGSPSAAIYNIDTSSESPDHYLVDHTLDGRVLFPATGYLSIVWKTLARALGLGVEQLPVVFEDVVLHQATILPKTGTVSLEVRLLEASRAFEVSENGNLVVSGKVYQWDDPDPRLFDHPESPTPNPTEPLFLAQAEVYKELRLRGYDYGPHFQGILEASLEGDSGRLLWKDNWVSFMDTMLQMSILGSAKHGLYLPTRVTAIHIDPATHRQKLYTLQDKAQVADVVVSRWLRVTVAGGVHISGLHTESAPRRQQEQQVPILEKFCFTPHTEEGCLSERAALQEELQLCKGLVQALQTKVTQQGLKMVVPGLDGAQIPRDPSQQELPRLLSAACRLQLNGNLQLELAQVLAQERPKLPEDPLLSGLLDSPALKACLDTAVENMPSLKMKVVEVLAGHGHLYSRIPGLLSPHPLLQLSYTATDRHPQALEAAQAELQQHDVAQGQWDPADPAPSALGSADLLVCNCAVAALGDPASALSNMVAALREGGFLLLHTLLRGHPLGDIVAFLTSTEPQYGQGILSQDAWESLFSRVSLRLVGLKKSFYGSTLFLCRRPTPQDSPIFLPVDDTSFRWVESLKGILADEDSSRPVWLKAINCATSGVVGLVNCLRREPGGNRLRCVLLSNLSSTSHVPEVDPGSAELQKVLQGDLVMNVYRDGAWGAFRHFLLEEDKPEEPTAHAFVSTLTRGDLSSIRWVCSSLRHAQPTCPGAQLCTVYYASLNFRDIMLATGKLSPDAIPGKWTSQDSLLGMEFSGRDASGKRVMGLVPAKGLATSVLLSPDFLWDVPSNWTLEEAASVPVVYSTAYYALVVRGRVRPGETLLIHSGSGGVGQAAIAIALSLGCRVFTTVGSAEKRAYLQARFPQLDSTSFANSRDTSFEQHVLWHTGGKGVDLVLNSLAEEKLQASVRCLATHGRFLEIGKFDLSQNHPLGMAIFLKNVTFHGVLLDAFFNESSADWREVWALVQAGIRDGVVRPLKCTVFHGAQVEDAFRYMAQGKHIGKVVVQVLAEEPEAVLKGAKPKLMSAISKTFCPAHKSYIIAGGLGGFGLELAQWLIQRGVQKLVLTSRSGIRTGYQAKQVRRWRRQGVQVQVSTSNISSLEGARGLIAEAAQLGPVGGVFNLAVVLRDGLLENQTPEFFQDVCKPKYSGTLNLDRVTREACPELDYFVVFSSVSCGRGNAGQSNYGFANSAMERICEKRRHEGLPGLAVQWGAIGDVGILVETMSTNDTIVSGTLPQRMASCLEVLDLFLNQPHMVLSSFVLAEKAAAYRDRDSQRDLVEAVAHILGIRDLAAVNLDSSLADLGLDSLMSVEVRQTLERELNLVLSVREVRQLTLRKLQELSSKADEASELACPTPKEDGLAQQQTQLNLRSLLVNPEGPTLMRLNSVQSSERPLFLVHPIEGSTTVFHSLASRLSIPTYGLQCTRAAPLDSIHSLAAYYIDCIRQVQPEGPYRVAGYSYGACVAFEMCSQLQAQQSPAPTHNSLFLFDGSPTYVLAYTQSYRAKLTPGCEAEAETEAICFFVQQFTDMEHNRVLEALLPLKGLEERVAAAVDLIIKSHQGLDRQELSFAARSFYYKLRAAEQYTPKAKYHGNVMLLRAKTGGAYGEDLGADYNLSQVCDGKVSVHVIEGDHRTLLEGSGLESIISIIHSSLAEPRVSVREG
- assay-remarks: FASN enzyme activity assay, fluorescence-based detection of CoA with CPM
- Assay type: biochemical
- condition-notes: 5 nM FASN, 150 μM NADPH, 10 μM acetyl-CoA, 25 μM malonyl-CoA, 90 minutes incubation; read-out: IC50 data for Compounds of Formulae I-V/V(a): Activity
Structures can show the parent of a compound that is named as a salt.
Listing: IC50 of selected compounds
property: IC50

                                   compound  property          measured
0  COc1nccc2cc(-c3ccc(OC4CCN(C(=O)C5CC5)CC4)cc3)ccc12      IC50     100 to 999 nM
1  NC(=O)C1(C(=O)N2CCC(Oc3ccc(-c4ccc5cncn5c4)cc3)CC2)CC1      IC50  1000 to 10000 nM
2  CC(C)Oc1c(-c2ccc(OC3CCN(C(=O)C4CC4)CC3)cc2)ccc2cccnc12 [Example 170, HCl]      IC50     100 to 999 nM
3  O=C(C1CC(F)(F)CO1)N1CCC(Oc2ccc(-c3cnc4ccccc4c3)cc2)CC1 (centres unmarked) [Example 163, HCl]      IC50     100 to 999 nM
4  CCC(=O)N1CCC(Oc2ccc(-c3ccc4cccnc4c3OC(C)C)cc2)CC1 [Example 169, HCl]      IC50     100 to 999 nM
5  O=C([C@H]1CCCO1)N1CCC(Oc2ccc(-c3ccc4c(C5CC5)nccc4c3)cc2)CC1      IC50        1 to 99 nM
6  Cc1c(-c2ccc(OC3CCN(C(=O)C4CC4)C(C)C3)cc2)ccc2cccnc12 (racemic) [Example 365, HCl]      IC50  1000 to 10000 nM
7  O=C(C1CC1)N1CCC(Oc2ccc(-c3ccc4cccnc4c3OCCN3CCCC3)cc2)CC1 [Example 174, HCl]      IC50  1000 to 10000 nM

* * *

- measured-target: recombinant human baculovirus-expressed GST-tagged FASN (Homo sapiens, UniProt P49327)
- Construct: GST
- assay-remarks: FASN enzyme activity assay, fluorescence-based detection of CoA with CPM
- Assay type: biochemical
- condition-notes: 5 nM FASN, 150 μM NADPH, 10 μM acetyl-CoA, 25 μM malonyl-CoA, 90 minutes incubation; read-out: IC50 data for Compounds of Formulae I-V/V(a): Activity
pIC50: −log10 of the molar value. Structures can show the parent of a compound that is named as a salt.
Listing: pIC50 of selected molecules
property: pIC50

In [3]: df
Out[3]:
                                    molecule                           measured_target      measured
 0  O=C(C1CC1)N1CCC(Oc2ccc(-c3cnc4ccccc4c3)cc2Cl)CC1 [Example 193]  recombinant human baculovirus-expressed GST-tagged FASN (Homo sapiens, UniProt P49327)  5.00 to 6.00
 1  O=C(C1CC1)N1CCC(Nc2ccc(-c3cnc4ccccc4c3)cc2)CC1 [Example 527, HCl]  recombinant human baculovirus-expressed GST-tagged FASN (Homo sapiens, UniProt P49327)  5.00 to 6.00
 2  CCC(=O)N1CCC(Oc2ccc(-c3n[nH]c4ccccc34)cc2)CC1 [Example 248]  recombinant human baculovirus-expressed GST-tagged FASN (Homo sapiens, UniProt P49327)  6.00 to 7.00
 3  CCC(=O)N1CCC(Oc2ccc(-c3cc4ccccc4nc3OC)cc2)CC1 [Example 18]  recombinant human baculovirus-expressed GST-tagged FASN (Homo sapiens, UniProt P49327)  6.00 to 7.00
 4  CC(C)C(=O)N1CCC(S(=O)(=O)c2ccc(-c3ccc4occc4c3)cc2)CC1 [Example 515]  recombinant human baculovirus-expressed GST-tagged FASN (Homo sapiens, UniProt P49327)  5.00 to 6.00
 5  O=C([C@H]1CCCO1)N1CCC(Oc2ccc(-c3ccc4cccnc4c3Cl)cc2F)CC1 [Example 223]  recombinant human baculovirus-expressed GST-tagged FASN (Homo sapiens, UniProt P49327)  7.00 to 9.00
 6  CCC(=O)N1CCC(Oc2ccc(-c3ccc4occc4c3)cc2)CC1 [Example 8]  recombinant human baculovirus-expressed GST-tagged FASN (Homo sapiens, UniProt P49327)  6.00 to 7.00
 7  CCC(=O)N1CCC(Oc2ccc(-c3cn4ccnc4cc3C)cc2)CC1 [Example 293]  recombinant human baculovirus-expressed GST-tagged FASN (Homo sapiens, UniProt P49327)  5.00 to 6.00
 8  CCC(=O)N1CC[C@@H](Oc2ccc(-c3cnc4ccccc4c3)cc2)C1 [Example 345, HCl]  recombinant human baculovirus-expressed GST-tagged FASN (Homo sapiens, UniProt P49327)  5.00 to 6.00
 9  CCC(=O)N1CCC(Oc2ccc(-c3ccc4cnccc4c3)nc2)CC1 [Example 147]  recombinant human baculovirus-expressed GST-tagged FASN (Homo sapiens, UniProt P49327)  5.00 to 6.00
10  CCC(=O)N1CCC(Oc2ccc(-c3ccc4cccnc4c3NC)cc2)CC1 [Example 326]  recombinant human baculovirus-expressed GST-tagged FASN (Homo sapiens, UniProt P49327)  6.00 to 7.00
11  Cc1c(-c2ccc(OC3CCN(C(=O)C(C)F)CC3)cc2)ccc2cccnc12 (stereo not drawn) [Example 359, HCl]  recombinant human baculovirus-expressed GST-tagged FASN (Homo sapiens, UniProt P49327)  7.00 to 9.00
12  CC(C)C(=O)N1CCC(Oc2ncc(-c3cnc4ccccc4c3)cn2)CC1 [Example 138]  recombinant human baculovirus-expressed GST-tagged FASN (Homo sapiens, UniProt P49327)  5.00 to 6.00
13  COc1cc(-c2ccc(OC3CCN(C(=O)C4CC4)CC3)cc2)cnc1OC [Example 499]  recombinant human baculovirus-expressed GST-tagged FASN (Homo sapiens, UniProt P49327)  5.00 to 6.00
14  CCC(=O)N1CCC(Oc2ccc(-c3ccc4ccccc4n3)cc2)CC1 [Example 40]  recombinant human baculovirus-expressed GST-tagged FASN (Homo sapiens, UniProt P49327)  6.00 to 7.00
15  O=C1COC(C(=O)N2CCC(Oc3ccc(-c4cnc5ccccc5c4)cc3)CC2)C1 (stereo not drawn) [Example 166]  recombinant human baculovirus-expressed GST-tagged FASN (Homo sapiens, UniProt P49327)  5.00 to 6.00
16  O=C(C1CCC1)N1CCC(Oc2ccc(-c3cncc(Oc4ccccc4)c3)cc2)CC1 [Example 400, HCl]  recombinant human baculovirus-expressed GST-tagged FASN (Homo sapiens, UniProt P49327)  5.00 to 6.00
17  Cc1ccoc1C(=O)N1CCC(Oc2ccc(-c3cnc4ccccc4c3)cc2)CC1 [Example 121, HCl]  recombinant human baculovirus-expressed GST-tagged FASN (Homo sapiens, UniProt P49327)  5.00 to 6.00
